- Tested on: OVCAR-8
- assay name: Growth inhibition of human OVCAR8 cells at 10 uM after 48 hrs by coulter counter analysis
- Type: functional
- details: OVCAR-8, 48 h, read-out: GI
readout: inhibition of growth at 10 µM

Cc1cnc(NC(=O)CN2CCN(C)CC2)s1 | < 10%
Cc1csc(NC(=O)C(C)N2CCN(C)CC2)n1 (centres undefined) | < 10%
CCOC(=O)c1sc(NC(=O)C(C)N2CCCCC2)nc1C (centres undefined) | < 10%
CCOC(=O)c1sc(NC(=O)C(C)N(CC)CC)nc1C (centres undefined) | < 10%
Cc1cnc(NC(=O)CCN2CCN(c3ccccc3)CC2)s1 | < 10%

I'd like to know its inhibition of growth at 10 µM. The compound in question is CCOC(=O)c1sc(NC(=O)CCN2CCOCC2)nc1C
< 10%

I'd like to know its inhibition of growth at 10 µM. The compound in question is O=C(CCN1CCN(c2ccccc2)CC1)Nc1nc(-c2ccccc2)cs1
23.6%

I'd like to know its inhibition of growth at 10 µM. The compound in question is CN1CCN(CCC(=O)Nc2nc(-c3ccccc3)cs2)CC1
< 10%

I'd like to know its inhibition of growth at 10 µM. The compound in question is CC(C(=O)Nc1nccs1)N1CCN(c2ccccc2)CC1 (centres undefined)
< 10%

I'd like to know its inhibition of growth at 10 µM. The compound in question is CCOC(=O)c1sc(NC(=O)CN(C)C)nc1C
< 10%

I'd like to know its inhibition of growth at 10 µM. The compound in question is Cc1csc(NC(=O)C(C)N2CCN(c3ccccc3)CC2)n1 (centres undefined)
< 10%

I'd like to know its inhibition of growth at 10 µM. The compound in question is CCOC(=O)c1sc(NC(=O)C(C)N2CCN(C)CC2)nc1C (centres undefined)
< 10%

I'd like to know its inhibition of growth at 10 µM. The compound in question is CCOC(=O)c1sc(NC(=O)CCN2CCN(C)CC2)nc1C
< 10%

I'd like to know its inhibition of growth at 10 µM. The compound in question is Cc1cnc(NC(=O)CN2CCN(c3ccccc3)CC2)s1
< 10%

I'd like to know its inhibition of growth at 10 µM. The compound in question is CCOC(=O)c1sc(NC(=O)C(C)N2CCOCC2)nc1C (centres undefined)
< 10%

I'd like to know its inhibition of growth at 10 µM. The compound in question is CC(C(=O)Nc1nccs1)N1CCN(C)CC1 (centres undefined)
< 10%

====

Entries and their measured inhibition of growth at 10 µM follow.
- Test system: UACC-62
- assay name: Growth inhibition of human UACC62 cells at 10 uM after 48 hrs by coulter counter analysis
- Assay type: functional
- details: UACC-62, 48 h, read-out: GI

// solved cases for inhibition of growth at 10 µM follow
CCOC(=O)c1sc(NC(=O)C(C)N(CC)CC)nc1C (configuration not stated) | < 10%
Cc1cnc(NC(=O)CN2CCN(C)CC2)s1 | < 10%
CCOC(=O)c1sc(NC(=O)CCN2CCOCC2)nc1C | < 10%
CCOC(=O)c1sc(NC(=O)C(C)N2CCN(C)CC2)nc1C (configuration not stated) | < 10%

I'd like to know its inhibition of growth at 10 µM. The compound in question is Cc1cnc(NC(=O)CCN2CCN(c3ccccc3)CC2)s1
< 10%

I'd like to know its inhibition of growth at 10 µM. The compound in question is CC(C(=O)Nc1nccs1)N1CCN(c2ccccc2)CC1 (configuration not stated)
< 10%

I'd like to know its inhibition of growth at 10 µM. The compound in question is Cc1csc(NC(=O)C(C)N2CCN(C)CC2)n1 (configuration not stated)
24%

I'd like to know its inhibition of growth at 10 µM. The compound in question is CCOC(=O)c1sc(NC(=O)CCN2CCN(c3ccccc3)CC2)nc1C
< 10%

I'd like to know its inhibition of growth at 10 µM. The compound in question is Cc1cnc(NC(=O)CN2CCN(c3ccccc3)CC2)s1
< 10%

I'd like to know its inhibition of growth at 10 µM. The compound in question is Cc1csc(NC(=O)C(C)N2CCN(c3ccccc3)CC2)n1 (configuration not stated)
< 10%

I'd like to know its inhibition of growth at 10 µM. The compound in question is O=C(CCCl)Nc1nc(-c2ccccc2)cs1
39%

I'd like to know its inhibition of growth at 10 µM. The compound in question is O=C(CN1CCN(c2ccccc2)CC1)Nc1nc(-c2ccccc2)cs1
36.6%

====

Entries and their measured inhibition of growth at 10 µM follow.
- System: LOX IMVI
- assay name: Growth inhibition of human LOXIMVI cells at 10 uM after 48 hrs by coulter counter analysis
- Type: functional
- details: read-out: GI

I'd like to know its inhibition of growth at 10 µM. The compound in question is CCOC(=O)c1sc(NC(=O)C(C)N2CCOCC2)nc1C (stereo not drawn)
< 10%

I'd like to know its inhibition of growth at 10 µM. The compound in question is Cc1cnc(NC(=O)CN2CCN(c3ccccc3)CC2)s1
< 10%

I'd like to know its inhibition of growth at 10 µM. The compound in question is CC(C(=O)Nc1nccs1)N1CCN(c2ccccc2)CC1 (stereo not drawn)
< 10%

I'd like to know its inhibition of growth at 10 µM. The compound in question is O=C(CCN1CCN(c2ccccc2)CC1)Nc1nc(-c2ccccc2)cs1
25.7%

I'd like to know its inhibition of growth at 10 µM. The compound in question is CCOC(=O)c1sc(NC(=O)C(C)N(CC)CC)nc1C (stereo not drawn)
< 10%

====

- System: CAKI-1
- assay name: Growth inhibition of human Caki1 cells at 10 uM after 48 hrs by coulter counter analysis
- Format: functional
- details: CAKI-1, 48 h, read-out: GI
readout: inhibition of growth at 10 µM (%)
Just the number in %, nothing appended.

CCOC(=O)c1sc(NC(=O)CCN2CCN(C)CC2)nc1C | 12.5

I'd like to know its inhibition of growth at 10 µM. The molecule in question is CCOC(=O)c1sc(NC(=O)C(C)N(CC)CC)nc1C (configuration not stated)
12

I'd like to know its inhibition of growth at 10 µM. The molecule in question is O=C(CCCl)Nc1nc(-c2ccccc2)cs1
69.3

====

- Test system: T47D
- assay name: Growth inhibition of human T47D cells at 10 uM after 48 hrs by coulter counter analysis
- Assay type: functional
- details: read-out: GI
Entries and their measured inhibition of growth at 10 µM follow.

// solved cases for inhibition of growth at 10 µM follow
Cc1csc(NC(=O)C(C)N2CCN(c3ccccc3)CC2)n1 (configuration not stated) | < 10%
CN1CCN(CCC(=O)Nc2nc(-c3ccccc3)cs2)CC1 | < 10%
CCOC(=O)c1sc(NC(=O)CN(C)C)nc1C | < 10%
Cc1cnc(NC(=O)CCN2CCN(c3ccccc3)CC2)s1 | < 10%
CCOC(=O)c1sc(NC(=O)CCN2CCN(C)CC2)nc1C | < 10%

I'd like to know its inhibition of growth at 10 µM. The compound in question is CCOC(=O)c1sc(NC(=O)C(C)N2CCCCC2)nc1C (configuration not stated)
< 10%

I'd like to know its inhibition of growth at 10 µM. The compound in question is CCOC(=O)c1sc(NC(=O)CCN2CCN(c3ccccc3)CC2)nc1C
< 10%

====

- System: A549
- assay name: Growth inhibition of human A549/ATCC cells at 10 uM after 48 hrs by coulter counter analysis
- Format: functional
- details: A549, 48 h, read-out: GI
Entries and their measured inhibition of growth at 10 µM follow.

I'd like to know its inhibition of growth at 10 µM. The compound in question is CCOC(=O)c1sc(NC(=O)CCN2CCN(c3ccccc3)CC2)nc1C
< 10%

====

- Test system: Malme-3M
- assay name: Growth inhibition of human MALME-3M cells at 10 uM after 48 hrs by coulter counter analysis
- Assay type: functional
- details: read-out: GI
readout: inhibition of growth at 10 µM

I'd like to know its inhibition of growth at 10 µM. The molecule in question is Cc1csc(NC(=O)C(C)N2CCN(c3ccccc3)CC2)n1 (stereo not drawn)
< 10%

I'd like to know its inhibition of growth at 10 µM. The molecule in question is CN1CCN(CCC(=O)Nc2nc(-c3ccccc3)cs2)CC1
12.7%

I'd like to know its inhibition of growth at 10 µM. The molecule in question is CC(C(=O)Nc1nccs1)N1CCN(c2ccccc2)CC1 (stereo not drawn)
< 10%

src = ChEMBL document CHEMBL2040727
